# measured_on: PolQ ATPase enzyme (1-894) (Homo sapiens (Human))
# assay_method_text: Polθ ATPase enzymatic assay (0.5 nM enzyme concentration), ADP-Glo
# Type: biochemical
# experimental_conditions: 0.5 nM PolQ ATPase enzyme (1-894); average IC50
Decision: IC50 beneath 1 nM gives rule met; IC50 meeting or exceeding 1 nM gives rule not met.

C#C[C@H]1C[C@H](c2nnc(NC(=O)c3cnc(-n4ccc(C)cc4=O)cc3-c3cc(C(F)F)ncc3OC)s2)C1: rule not met

Task: Is 1 nM strictly greater than the compound's reported IC50? compound: C#C[C@H]1C[C@@H]1c1nnc(NC(=O)c2cnc(-n3cccc(C)c3=O)cc2-c2cc(C(F)F)ncc2OC)s1
Result: rule met

Task: Determine if COc1cnc(C(F)F)cc1-c1cc(C#CC(C)(C)N2CCN(C)CC2)ncc1C(=O)Nc1nnc(C#CC2CC2)s1 shows IC50 strictly lower than 1 nM.
Result: rule not met

Task: Report whether reported IC50 is lower than 1 nM (strictly) for COc1cnc(C(F)F)cc1-c1cc(-c2ccc(=O)n(C)c2)ncc1C(=O)Nc1nnc(C#CC2CC2)s1
Result: rule not met

Task: Is the reported IC50 for COc1cnc(C(F)F)cc1-c1cc(-n2ccc(C)cc2=O)ncc1C(=O)Nc1nnc(C2CC3(CCC3)C2)s1 strictly below 1 nM?
Result: rule not met

Task: For COc1cnc(C(F)F)cc1-c1cc(C2C[C@H]2C(=O)N(C)C)ccc1C(=O)Nc1nnc(C#CC2CC2)s1 (mixture of isomers) , is the recorded IC50 below the cut-off of 1 nM?
Result: rule met

###

Exercise: state measured IC50 for each of the compounds provided.
# measured_on: PolQ ATPase enzyme (1-894) (Homo sapiens (Human), UniProt O75417)
# Sequence (O75417 1-894): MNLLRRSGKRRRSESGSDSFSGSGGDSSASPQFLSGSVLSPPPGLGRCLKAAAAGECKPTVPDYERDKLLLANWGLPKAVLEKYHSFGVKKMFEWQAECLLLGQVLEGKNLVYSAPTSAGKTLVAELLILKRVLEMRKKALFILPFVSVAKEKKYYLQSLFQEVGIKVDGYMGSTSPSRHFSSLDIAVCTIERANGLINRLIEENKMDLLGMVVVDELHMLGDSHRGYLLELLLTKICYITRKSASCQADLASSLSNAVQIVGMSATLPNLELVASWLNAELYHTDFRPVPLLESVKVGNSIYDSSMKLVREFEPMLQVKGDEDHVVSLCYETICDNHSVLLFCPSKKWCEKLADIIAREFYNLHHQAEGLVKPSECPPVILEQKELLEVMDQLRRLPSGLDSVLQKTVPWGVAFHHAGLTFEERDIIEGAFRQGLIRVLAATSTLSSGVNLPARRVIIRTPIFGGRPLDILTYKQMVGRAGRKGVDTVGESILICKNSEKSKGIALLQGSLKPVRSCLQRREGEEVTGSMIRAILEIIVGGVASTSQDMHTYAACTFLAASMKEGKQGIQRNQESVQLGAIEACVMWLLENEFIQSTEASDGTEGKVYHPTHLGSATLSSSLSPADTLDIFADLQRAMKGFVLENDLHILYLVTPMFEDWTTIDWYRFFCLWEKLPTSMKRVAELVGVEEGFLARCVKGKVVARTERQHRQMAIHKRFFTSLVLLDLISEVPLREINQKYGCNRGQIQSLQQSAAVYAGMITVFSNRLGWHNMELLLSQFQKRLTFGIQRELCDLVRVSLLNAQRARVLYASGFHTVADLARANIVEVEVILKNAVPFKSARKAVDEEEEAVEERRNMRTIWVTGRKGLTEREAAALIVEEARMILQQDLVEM
# assay_method_text: Polθ ATPase enzymatic assay (0.5 nM enzyme concentration), ADP-Glo
# Type: biochemical
# experimental_conditions: 0.5 nM PolQ ATPase enzyme (1-894); average IC50

COc1cnc(C(F)F)cc1-c1cc(-n2cccc(C(C)=O)c2=O)ncc1C(=O)Nc1nnc(C#CC2CC2)s1: < 0.25 nM
COc1cnc(C(F)F)cc1-c1cc(-n2ccc(N3CCOCC3)cc2=O)ncc1C(=O)Nc1nnc(C#CC2CC2)s1: < 0.25 nM

Task: For PolQ ATPase enzyme (1-894) (Homo sapiens (Human), UniProt O75417), give IC50 of the listed compound: COc1cnc(C(F)F)cc1-c1cc(-c2cccn(C)c2=O)ncc1C(=O)Nc1nnc(C#CC2CC2)s1
Result: < 0.25 nM

###

# measured_on: PolQ ATPase enzyme (1-894) (Homo sapiens (Human))
# assay_method_text: Polθ ATPase enzymatic assay (0.5 nM enzyme concentration), ADP-Glo
# Type: biochemical
# experimental_conditions: 0.5 nM PolQ ATPase enzyme (1-894); average IC50
Could you please report measured IC50 for the items listed next?

Below are worked cases with known answers.
COc1cnc(C(F)F)cc1-c1cc(-n2ccc(C)cc2=O)ncc1C(=O)Nc1nnc([C@H]2C[C@@H]2c2ccn(C)n2)s1 (racemic) [Compound 583]: < 0.25 nM
[2H]C([2H])([2H])N1CCN(c2cc(-c3cc(C(F)F)ncc3OC)c(C(=O)Nc3nnc(C#CC4CC4)s3)cn2)C(=O)C12CC2 [Compound 503]: < 0.25 nM

Now for a further molecule.
Task: Assign IC50 to the following record: C#C[C@H]1C[C@@H]1c1nnc(NC(=O)c2cnc(-n3ccc(OC4COC4)cc3=O)cc2-c2cc(C(F)F)ncc2OC)s1 [Compound 617]
Result: < 0.25 nM
